Measured values drawn from patent US6800652B2 for this set.

Biological target: noradrenaline transporter (hNET) (Homo sapiens, UniProt P23975)
Sequence (P23975 whole entry): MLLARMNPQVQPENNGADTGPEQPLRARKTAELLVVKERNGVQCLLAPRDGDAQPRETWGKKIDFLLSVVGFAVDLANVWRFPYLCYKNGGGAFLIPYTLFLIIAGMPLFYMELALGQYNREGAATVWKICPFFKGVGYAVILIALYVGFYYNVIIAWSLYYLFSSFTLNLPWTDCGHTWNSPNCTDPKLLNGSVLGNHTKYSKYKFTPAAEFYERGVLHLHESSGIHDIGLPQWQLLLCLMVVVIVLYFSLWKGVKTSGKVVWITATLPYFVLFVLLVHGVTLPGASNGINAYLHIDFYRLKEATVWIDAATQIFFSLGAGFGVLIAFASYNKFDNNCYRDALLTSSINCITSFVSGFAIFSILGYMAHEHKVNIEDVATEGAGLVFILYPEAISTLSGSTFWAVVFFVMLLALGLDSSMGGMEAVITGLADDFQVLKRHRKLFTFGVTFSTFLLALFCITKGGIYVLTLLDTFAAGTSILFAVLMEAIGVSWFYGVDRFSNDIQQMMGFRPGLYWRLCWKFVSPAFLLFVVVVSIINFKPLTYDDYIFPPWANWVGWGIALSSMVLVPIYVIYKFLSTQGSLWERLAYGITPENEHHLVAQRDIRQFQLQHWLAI
Assay: Inhibition of 3H-noradrenaline uptake in HEK-293 cells stably transfected with hNET
Conditions: HEK-293 hNET cells, 3H-Noradrenaline 200 nM, 15 min incubation, room temperature; read-out: NRI (noradrenaline re-uptake inhibition) IC50
pIC50: −log10 of the molar value.
endpoint: pIC50

* CSc1ccc(Sc2ccncc2CN(C)C)cc1 | 6.25

---

Biological target: human serotonin transporter (hSERT) (Homo sapiens, UniProt P31645)
Construct: expressed in transfected cells
Sequence (P31645 whole entry): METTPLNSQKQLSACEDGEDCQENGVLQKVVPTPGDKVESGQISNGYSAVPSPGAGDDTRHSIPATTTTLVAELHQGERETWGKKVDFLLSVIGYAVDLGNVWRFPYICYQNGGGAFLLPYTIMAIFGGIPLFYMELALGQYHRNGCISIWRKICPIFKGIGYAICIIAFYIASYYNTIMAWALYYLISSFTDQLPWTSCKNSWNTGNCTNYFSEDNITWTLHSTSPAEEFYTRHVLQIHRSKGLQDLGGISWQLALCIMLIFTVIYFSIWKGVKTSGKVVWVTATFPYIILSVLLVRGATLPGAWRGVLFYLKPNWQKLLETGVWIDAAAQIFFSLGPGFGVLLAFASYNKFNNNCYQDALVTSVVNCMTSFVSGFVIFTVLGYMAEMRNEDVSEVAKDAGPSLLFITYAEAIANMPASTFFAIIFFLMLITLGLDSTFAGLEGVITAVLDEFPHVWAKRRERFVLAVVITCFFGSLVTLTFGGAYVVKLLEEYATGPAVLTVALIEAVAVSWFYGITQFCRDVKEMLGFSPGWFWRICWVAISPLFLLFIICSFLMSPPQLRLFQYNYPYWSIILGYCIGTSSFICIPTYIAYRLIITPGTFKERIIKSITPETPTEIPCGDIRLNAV
Assay: Inhibition of 3H-serotonin uptake in HEK-293 cells stably transfected with hSERT
Assay type: cell-based
Conditions: HEK-293 hSERT cells, 3H-5HT 50 nM, 5 min incubation, room temperature; read-out: SRI (serotonin re-uptake inhibition) IC50
endpoint: IC50 (nM)

- CSc1ccc(Sc2ccncc2CN(C)C)cc1: 2.2

---

Target: dopamine transporter (hDAT) (Homo sapiens, UniProt Q01959)
Construct: expressed in transfected cells
Sequence (Q01959 whole entry): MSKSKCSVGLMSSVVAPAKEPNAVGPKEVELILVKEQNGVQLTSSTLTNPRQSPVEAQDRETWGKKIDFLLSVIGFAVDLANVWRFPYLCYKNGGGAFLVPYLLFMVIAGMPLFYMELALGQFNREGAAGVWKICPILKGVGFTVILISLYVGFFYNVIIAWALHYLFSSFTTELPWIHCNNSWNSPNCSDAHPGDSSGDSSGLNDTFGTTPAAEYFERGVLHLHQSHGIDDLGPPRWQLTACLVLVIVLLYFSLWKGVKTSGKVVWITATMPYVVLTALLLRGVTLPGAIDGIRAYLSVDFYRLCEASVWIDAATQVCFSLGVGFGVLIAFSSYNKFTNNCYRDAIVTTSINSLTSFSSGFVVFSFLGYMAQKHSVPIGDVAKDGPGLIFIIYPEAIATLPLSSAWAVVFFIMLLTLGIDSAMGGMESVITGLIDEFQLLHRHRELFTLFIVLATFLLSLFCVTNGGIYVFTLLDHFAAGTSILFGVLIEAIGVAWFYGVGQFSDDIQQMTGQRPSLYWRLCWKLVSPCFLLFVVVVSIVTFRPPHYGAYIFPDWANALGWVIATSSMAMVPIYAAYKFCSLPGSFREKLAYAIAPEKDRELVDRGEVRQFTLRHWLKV
Assay: Inhibition of 3H-dopamine uptake in HEK-293 cells stably transfected with hDAT
Assay type: cell-based
Conditions: HEK-293 hDAT cells, 3H-Dopamine 200 nM, 5 min incubation, room temperature; read-out: DRI (dopamine re-uptake inhibition) IC50
pIC50: −log10 of the molar value.
endpoint: pIC50

• CSc1ccc(Sc2ccncc2CN(C)C)cc1 [Example 2] = 4.93
